Source of measurements: patent US12030876B2

Entries and their EC50 values follow.
- experimental.target: AHR (Mus musculus, UniProt P30561)
- Sequence (P30561 whole entry F348L/P471L, form open): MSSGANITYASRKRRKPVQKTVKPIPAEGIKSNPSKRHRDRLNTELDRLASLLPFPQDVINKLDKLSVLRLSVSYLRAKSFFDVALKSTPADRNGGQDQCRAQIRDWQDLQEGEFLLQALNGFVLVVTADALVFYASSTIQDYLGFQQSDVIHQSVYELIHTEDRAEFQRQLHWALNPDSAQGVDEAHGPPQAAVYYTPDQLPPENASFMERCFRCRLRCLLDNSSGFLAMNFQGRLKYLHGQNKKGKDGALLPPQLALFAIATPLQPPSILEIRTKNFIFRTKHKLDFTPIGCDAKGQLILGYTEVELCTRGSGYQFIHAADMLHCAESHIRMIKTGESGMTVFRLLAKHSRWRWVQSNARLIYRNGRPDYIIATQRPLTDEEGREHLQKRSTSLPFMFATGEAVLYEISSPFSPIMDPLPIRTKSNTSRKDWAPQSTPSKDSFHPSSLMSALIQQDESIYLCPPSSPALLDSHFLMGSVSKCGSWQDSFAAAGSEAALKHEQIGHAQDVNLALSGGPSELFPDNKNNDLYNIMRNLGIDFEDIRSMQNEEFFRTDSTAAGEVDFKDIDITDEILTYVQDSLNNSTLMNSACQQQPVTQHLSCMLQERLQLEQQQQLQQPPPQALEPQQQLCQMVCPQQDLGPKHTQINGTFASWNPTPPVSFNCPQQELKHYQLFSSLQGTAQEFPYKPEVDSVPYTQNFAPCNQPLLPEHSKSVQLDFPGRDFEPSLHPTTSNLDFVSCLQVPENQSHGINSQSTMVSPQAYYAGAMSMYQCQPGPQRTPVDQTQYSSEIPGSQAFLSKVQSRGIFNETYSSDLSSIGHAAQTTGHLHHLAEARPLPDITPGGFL
- assay: DRE-Luciferase Reporter Assay, Hepa1.6 (agonist)
- Type: cell-based, murine
- test.context: Hepa1.6, Table 3; read-out: DRE-Luc Hepa1.6 - Agonist: Average EC50

Examples from the recorded data:
[[record]]
input_smiles = "FC(F)(F)c1cccc(Nc2nc(-c3cncc(Cl)c3)cs2)c1"
assay_metric = "EC50"
observed_value = "10 to 100 nM"

[[record]]
input_smiles = "Fc1ccc(-c2csc(Nc3cccc(C(F)(F)F)c3)n2)cc1/N=N/c1cc(-c2csc(Nc3cccc(C(F)(F)F)c3)n2)ccc1F"
assay_metric = "EC50"
observed_value = "> 1000 nM"

[[record]]
input_smiles = "CNc1cc(-c2csc(Nc3cccc(C(F)(F)F)c3)n2)ccn1"
assay_metric = "EC50"
observed_value = "10 to 100 nM"


// query Record request: EC50 value, item C[N+]1(C)CCN(C(=O)c2cccc(Nc3nc(-c4ccc[n+]([O-])c4)cs3)c2)CC1
// result > 1000 nM

// query Follow-up entry: Nc1cncc(-c2csc(Nc3cccc(C(F)(F)F)c3)n2)c1
// result < 10 nM

// query Can you check O=c1cc(-n2cnc(Nc3cccc(C(F)(F)F)c3)n2)cc[nH]1 next?
// result > 1000 nM

// query Ok, now O=C(O)c1cccc(/N=N/c2cc(-c3csc(Nc4cccc(C(F)(F)F)c4)n3)ccc2F)c1
// result 100 to 1000 nM

// query Then N#Cc1cccc(-c2nsc(Nc3cccc(C(F)(F)F)c3)n2)c1 ?
// result > 1000 nM

// query Entry C[n+]1cccc(-c2csc(Nc3cccc(C(F)(F)F)c3)n2)c1 please
// result 100 to 1000 nM

----------
- experimental.target: AHR (Homo sapiens, UniProt P35869)
- Construct: endogenous in cells; host or cells: HepG2 (human), transfected with a DRE-luciferase reporter only
- Sequence (P35869 11-848): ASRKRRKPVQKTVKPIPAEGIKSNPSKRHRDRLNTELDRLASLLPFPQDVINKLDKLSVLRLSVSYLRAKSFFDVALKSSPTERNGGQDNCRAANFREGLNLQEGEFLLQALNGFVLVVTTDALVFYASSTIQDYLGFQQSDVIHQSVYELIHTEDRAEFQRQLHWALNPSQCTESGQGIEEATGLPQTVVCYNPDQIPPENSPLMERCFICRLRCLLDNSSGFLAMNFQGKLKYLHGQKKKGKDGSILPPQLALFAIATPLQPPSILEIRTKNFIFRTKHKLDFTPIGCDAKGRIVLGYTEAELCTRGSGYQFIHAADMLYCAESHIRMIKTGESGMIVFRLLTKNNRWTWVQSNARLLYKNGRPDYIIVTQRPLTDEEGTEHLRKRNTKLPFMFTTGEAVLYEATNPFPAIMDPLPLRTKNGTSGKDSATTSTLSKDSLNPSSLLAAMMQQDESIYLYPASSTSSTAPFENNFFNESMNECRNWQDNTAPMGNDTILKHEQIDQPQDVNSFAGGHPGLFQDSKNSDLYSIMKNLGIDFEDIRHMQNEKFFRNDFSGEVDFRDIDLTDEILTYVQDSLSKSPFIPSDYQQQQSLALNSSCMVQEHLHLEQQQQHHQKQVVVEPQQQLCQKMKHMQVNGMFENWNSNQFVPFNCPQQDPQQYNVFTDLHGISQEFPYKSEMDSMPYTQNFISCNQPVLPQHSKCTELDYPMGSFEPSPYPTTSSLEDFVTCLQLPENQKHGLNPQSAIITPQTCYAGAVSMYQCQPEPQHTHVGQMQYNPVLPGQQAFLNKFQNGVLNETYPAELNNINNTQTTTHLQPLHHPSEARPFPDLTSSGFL
- assay: DRE-Luciferase Reporter Assay, HepG2 (agonist)
- Assay type: cell-based
- test.context: DRE-Luc HepG2 - Agonist: Average EC50 (μM), HepG2, Table 2
assay.metric: EC50

// query Need EC50, item c1ccc(Nc2nc(-c3ccccc3)cs2)cc1
// result > 1 µM

----------
- experimental.target: AHR (Homo sapiens, UniProt P35869)
- Construct: endogenous in cells; host or cells: HepG2 (human), transfected with a DRE-luciferase reporter only
- assay: DRE-Luciferase Reporter Assay, HepG2 (agonist)
- Format: cell-based
- test.context: DRE-Luc HepG2 - Agonist: Average EC50 (μM), HepG2, Table 3
assay.metric: EC50

// query Param readout= EC50; system= AHR (Homo sapiens, UniProt P35869); entry= O=C(O)c1cccc(Nc2nc(-c3cccc([N+](=O)[O-])c3)cs2)c1 ; returns value.
// result > 1 µM

----------
- experimental.target: AHR (Homo sapiens, UniProt P35869)
- Construct: endogenous in cells; host or cells: HepG2 (human), transfected with a DRE-luciferase reporter only
- assay: DRE-Luciferase Reporter Assay, HepG2 (agonist)
- Format: cell-based
- test.context: HepG2, Table 2; read-out: DRE-Luc HepG2 - Agonist: Average EC50
pEC50: −log10 of the molar value.
assay.metric: pEC50

The examples below pair each entry with its known result.
[[record]]
compound = "FC(F)(F)c1cccc(Nc2cc(-c3cccc(Cl)c3)cs2)c1 [I-60]"
observed_value = "7.00 to 8.00"

[[record]]
compound = "FC(F)(F)c1ccc(Nc2ncc(-c3ccccc3Cl)o2)cc1 [I-62]"
observed_value = "6.00 to 7.00"

[[record]]
compound = "FC(F)(F)c1cccc(Nc2nc(-c3ccccn3)cs2)c1 [Compound P-9]"
observed_value = "> 8.00"

[[record]]
compound = "CN(C)CCOc1ccc(-c2cnc(Nc3ccc(C(F)(F)F)cc3)o2)cc1 [I-74]"
observed_value = "< 6.00"


// query I am curious: what pEC50 value has been reported for C[N+](C)(CCOCCN(c1cccc(C(F)(F)F)c1)c1nc(-c2cccc(Cl)c2)cs1)CC(=O)O [I-51] ?
// result < 6.00

// query Then this compound: FC(F)(F)c1cccc(-c2csc(Nc3cccc(Cl)c3)n2)c1 [I-32]
// result 7.00 to 8.00

// query Same again, this time with Clc1cccc(Nc2nc(-c3cccc(Cl)c3)cs2)c1 [Compound P-5]
// result > 8.00

// query Quick one: FC(F)(F)Oc1cccc(-c2csc(Nc3cccc(C(F)(F)F)c3)n2)c1 [I-36]
// result 6.00 to 7.00

// query Field entry: Clc1cccc(-c2csc(Nc3ccccn3)n2)c1 [Compound P-13]
// result 6.00 to 7.00

// query Another compound to check: Cc1ccc(-c2csc(Nc3cccc(C(F)(F)F)c3)n2)cc1[N+](=O)[O-] [I-11]
// result > 8.00

// query Now the same for FC(F)(F)c1cccc(Nc2nc(-c3cccnc3)cs2)c1 [Compound P-8]
// result > 8.00

// query Cool, now Clc1cccc(-c2csc(Nc3ccccc3)n2)c1 [Compound P-7]
// result > 8.00

// query Moving on to the next compound: FC(F)(F)c1ccc(Nc2nc(-c3cccc(Cl)c3)co2)cc1 [I-63]
// result 6.00 to 7.00

// query Consider next the compound FC(F)(F)c1cccc(Nc2nc(-c3cccc(Cl)c3)ns2)c1 [I-58] in the same way.
// result > 8.00

// query And what about the compound C[N+](C)(CCO)CCOCCN(c1cccc(C(F)(F)F)c1)c1nc(-c2cccc(Cl)c2)cs1 [I-45] ?
// result 6.00 to 7.00

// query Do the same for FC(F)(F)c1cccc(Nc2nc(-c3cccc(Cl)c3)cs2)c1 [Compound P-2] please
// result > 8.00

// query And what about the compound C[N+](C)(C)CCCC(=O)N(c1cccc(C(F)(F)F)c1)c1nc(-c2cccc(Cl)c2)cs1 [I-29] ?
// result 7.00 to 8.00

// query And N#Cc1cccc(Nc2nc(-c3cccc(Cl)c3)cs2)c1 [I-25] ?
// result 7.00 to 8.00

// query Then O=[N+]([O-])c1cccc(Nc2nc(-c3cccc(Cl)c3)cs2)c1 [I-38] ?
// result 6.00 to 7.00

// query How about this compound: N#Cc1cccc(-c2csc(Nc3cccc(C(F)(F)F)c3)n2)c1 [I-14]
// result > 8.00

// query // repeat for NC(=O)c1cccc(-c2csc(Nc3cccc(C(F)(F)F)c3)n2)c1 [I-22] and report
// result > 8.00

// query Please answer likewise for [O-][n+]1cccc(-c2csc(Nc3cccc(C(F)(F)F)c3)n2)c1 [I-9]
// result > 8.00

// query Do the same for C[N+](C)(CCO)CCNC(=O)N(c1cccc(C(F)(F)F)c1)c1nc(-c2cccc(Cl)c2)cs1 [I-3] please
// result > 8.00

// query Do the same for C[N+]1(CCNC(=O)N(c2cccc(C(F)(F)F)c2)c2nc(-c3cccc(Cl)c3)cs2)CCC(O)CC1 (centres unmarked) [I-20] please
// result > 8.00

// query Record: Nc1cccc(-c2csc(Nc3cccc(C(F)(F)F)c3)n2)c1 [I-10]
// result > 8.00

// query Quick one: FC(F)(F)c1cccc(Nc2nc(-c3ccc(Cl)cc3)cs2)c1 [Compound P-10]
// result 7.00 to 8.00
